Values from the supplement of paper PMC10065799

system: Fer (mouse); assay: phosphorylation enrichment, bacterial display (enrichment ratio); higher = better substrate or ligand; peptides without Tyr show the background;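 note: 11-residue human phosphosite peptides and single-mutation variants displayed on the E. coli surface, counted by deep sequencing, each peptide's frequency after selection divided by its frequency in the unselected input library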;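 note: frequency after pTyr selection over input frequency; kinase dosed for 20-30% of maximal phosphorylation in three min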
Label false if phosphorylation enrichment falls below 0.5; label true in every other case.

| SEQUENCE_ENTRY | LABEL_VALUE |
| --- | --- |
| VFLGAYDCFLP [SLC22A5_Y486_R488C_YF] | true |
| CEHRGYLYLAI [TEK_Y897] | true |
| GFRPVYSEDEQ [CHST6_Y362_YF] | true |
| LTYHMYADPNI [SOS1_Y618_F623I] | true |
| QAKRKYQEASK [FES_Y156] | false |

Hello, I need to know if MEYLPYGSLRD [JAK2_Y934] has measured phosphorylation enrichment not below 0.5. Thanks!
true

Hello, I need to know if RSRSSYTHSLN [MYCT1_Y116_G119S] has measured phosphorylation enrichment not below 0.5. Thanks!
false

Hello, I need to know if YGAHNYHPLPV [OAT_Y55] has measured phosphorylation enrichment not below 0.5. Thanks!
true

Hello, I need to know if SKGFAYVHFDS [PABPC5_Y149_YF] has measured phosphorylation enrichment not below 0.5. Thanks!
false

Hello, I need to know if MDQAEYQAKIR [DHX58_Y518] has measured phosphorylation enrichment not below 0.5. Thanks!
false

Hello, I need to know if IYLADYRIMEG [ALOX12B_Y318] has measured phosphorylation enrichment not below 0.5. Thanks!
false

Hello, I need to know if PVDTYYDSTRG [DYNC2H1_Y2231_M2227V] has measured phosphorylation enrichment not below 0.5. Thanks!
true

Hello, I need to know if CENCHYPILPL [LCK_Y25_V28L] has measured phosphorylation enrichment not below 0.5. Thanks!
false

Hello, I need to know if VGTKWYMAPEV [ACVRL1_Y375_R374W] has measured phosphorylation enrichment not below 0.5. Thanks!
false

Hello, I need to know if EIPTQYEAMAS [GFAP_Y242_R239P] has measured phosphorylation enrichment not below 0.5. Thanks!
true

* * *

# phosphorylation enrichment per record follows
test system: c-Abl (mouse); experiment: phosphorylation enrichment, bacterial display (enrichment ratio); higher = better substrate or ligand; peptides without Tyr show the background
The answer should be a number; do not append a unit.

The following sequences have reported results that may help.
| SEQUENCE_ENTRY | PARAMETER_MEASURED | NUMERIC_RESULT |
| --- | --- | --- |
| GRFSGYKSKHG [EPHA3_Y570_C568S] | phosphorylation enrichment | 0.65 |
| HTVEDYQAIVD [CCT7_Y263] | phosphorylation enrichment | 1.68 |
| SVTCTYSAALN [TP53_Y126_P128A] | phosphorylation enrichment | 0.947 |
| SGDDGYAKDAQ [TENM4_Y1530_K1535Q] | phosphorylation enrichment | 0.575 |
| GLAKGYIDPET [CSNK1G2_Y195_E194G] | phosphorylation enrichment | 0.454 |

Endpoint output: phosphorylation enrichment of EFENSCIFDIN [GAB1_Y83_Y83C] . Value?
0.673

Endpoint output: phosphorylation enrichment of LIEQAYDNLHE [PRPF8_Y871_P874L] . Value?
0.479

* * *

molecular target: FGFR1 (UniProt P11362); assay: phosphorylation enrichment, bacterial display (enrichment ratio); higher = better substrate or ligand; peptides without Tyr show the background
Sequence (P11362 whole entry, looked up): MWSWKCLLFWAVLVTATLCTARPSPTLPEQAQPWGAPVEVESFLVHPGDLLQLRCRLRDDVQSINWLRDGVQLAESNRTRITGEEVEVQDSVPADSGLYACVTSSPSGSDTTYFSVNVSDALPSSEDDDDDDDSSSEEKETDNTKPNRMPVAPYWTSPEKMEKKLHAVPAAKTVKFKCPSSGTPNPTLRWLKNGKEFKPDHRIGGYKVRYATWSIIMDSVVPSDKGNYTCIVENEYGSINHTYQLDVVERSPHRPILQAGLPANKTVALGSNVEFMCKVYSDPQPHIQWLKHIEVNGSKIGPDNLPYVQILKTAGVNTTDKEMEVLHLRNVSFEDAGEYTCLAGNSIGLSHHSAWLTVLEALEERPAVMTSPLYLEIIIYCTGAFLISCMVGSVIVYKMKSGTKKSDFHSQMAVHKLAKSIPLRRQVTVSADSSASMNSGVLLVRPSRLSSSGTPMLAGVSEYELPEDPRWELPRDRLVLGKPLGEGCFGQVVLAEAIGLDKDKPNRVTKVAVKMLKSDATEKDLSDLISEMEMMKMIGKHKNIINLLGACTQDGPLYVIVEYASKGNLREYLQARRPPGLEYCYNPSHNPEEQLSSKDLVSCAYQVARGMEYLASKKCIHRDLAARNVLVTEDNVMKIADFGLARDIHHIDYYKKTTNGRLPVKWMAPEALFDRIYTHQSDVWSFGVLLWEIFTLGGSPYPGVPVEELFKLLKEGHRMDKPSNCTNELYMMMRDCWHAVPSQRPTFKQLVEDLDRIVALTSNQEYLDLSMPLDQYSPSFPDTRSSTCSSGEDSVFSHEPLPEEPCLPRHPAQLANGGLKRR
PARAMETER_MEASURED: phosphorylation enrichment
The answer should be a number; do not append a unit.

| SEQUENCE_ENTRY | NUMERIC_RESULT |
| --- | --- |
| PGPQSYPTVTG [PAX5_Y299_I301T] | 0.811 |
| WAMLAYNRSKL [WWOX_Y293] | 0.431 |
| SIVEDYRPPFY [ACVRL1_Y421_G416S] | 0.552 |
| LTERGYSFTTK [ACTG1_Y198_T203K] | 1.96 |
| EFISEHCGEII [EZH2_Y641_Y641H] | 0.544 |

Endpoint output: phosphorylation enrichment of WHHIFYNELRV [ACTG1_Y91_T89I] . Value?
0.527

Endpoint output: phosphorylation enrichment of NIEPIYLNMLL [ATR_Y317_V316I] . Value?
10.7

Endpoint output: phosphorylation enrichment of ATARPYSPFII [LRP5_Y1528_R1529S_YF] . Value?
0.409
